Hello, the source for this data is patent US10934310B2, in case you need it.

Test system: unphosphorylated-BTK kinase domain (UP-BTK), GST-tagged human BTK (389-659aa) (Homo sapiens (Human), UniProt Q06187)
Sequence (Q06187 389-659): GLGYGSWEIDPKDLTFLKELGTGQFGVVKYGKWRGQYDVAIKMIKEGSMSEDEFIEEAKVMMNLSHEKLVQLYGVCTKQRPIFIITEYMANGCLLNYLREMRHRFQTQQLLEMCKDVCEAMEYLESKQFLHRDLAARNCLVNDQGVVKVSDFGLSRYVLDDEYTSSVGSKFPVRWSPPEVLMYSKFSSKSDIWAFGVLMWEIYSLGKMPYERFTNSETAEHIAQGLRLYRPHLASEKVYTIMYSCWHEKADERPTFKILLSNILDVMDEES
Procedure summary: BTK Kinase Lanthascreen Binding Assay
Condition label: Lanthascreen binding, 60 minutes incubation; pIC50 = negative log of the IC50 in molar
Catalogue of BTK_I_binding pIC50 readings, one per entry.
Attribute measured: BTK_I_binding pIC50

1. C=CC(=O)N[C@H]1CCC[C@H]1NC(=O)c1sc2nccc3c2c1NC(=O)N3c1ccc(Oc2cccnc2)cn1 [Example 491]: 7.43
2. C=CC(=O)N[C@H]1CCC[C@H]1NC(=O)c1sc2nccc3c2c1NC(=O)N3c1cnc(CC(C)C)cc1C [Example 298]: 8.09
3. CC(=O)N[C@@H]1CC[C@H](NC(=O)c2sc3nccc4c3c2NC(=O)N4c2cnc(Oc3ccccc3)cc2C)C1 (single isomer, unassigned) [Example 391]: 7.86

====

Test system: unphosphorylated-BTK kinase domain (UP-BTK), GST-tagged human BTK (389-659aa) (Homo sapiens (Human))
Procedure summary: BTK Kinase Lanthascreen Binding Assay
Condition label: Lanthascreen binding, 60 minutes incubation; pIC50 = negative log of the IC50 in molar
Catalogue of BTK_I_binding pIC50 readings, one per entry.
Attribute measured: BTK_I_binding pIC50

1. C=CC(=O)N[C@H]1CC[C@H](NC(=O)c2sc3nccc4c3c2NC(=O)N4c2cnc(Oc3ccccc3)cc2C)C1 (single isomer, unassigned): 8.04
2. C=CC(=O)N[C@H]1CCC[C@H]1NC(=O)c1sc2nccc3c2c1NC(=O)N3c1cnc(OCC(C)C)cc1C (single isomer, unassigned): 8.25
3. C=CC(=O)N[C@H]1CCC[C@H]1NC(=O)c1sc2nccc3c2c1NC(=O)N3c1ccnc(-c2cccnc2)c1: 7.74
4. C=CC(=O)N[C@H]1CCC[C@H]1NC(=O)c1sc2nccc3c2c1NC(=O)N3c1ccc(Oc2cncnc2)cc1C: 7.79
5. O=C(N[C@@H]1CCC[C@H]1O)c1sc2nccc3c2c1NC(=O)N3c1ccc(Oc2ccccc2)cc1: 6.74
6. C=CC(=O)N[C@H]1CCCC[C@H]1NC(=O)c1sc2nccc3c2c1NC(=O)N3c1cnc(Oc2ccccc2)nc1: 8.23
7. C=CC(=O)N[C@@H]1CCC[C@@H]1NC(=O)c1sc2nccc3c2c1NC(=O)N3c1ccc(Oc2ccccc2)cc1C: 7.13
8. CC(=O)N[C@@H]1CCCC[C@H]1NC(=O)c1sc2nccc3c2c1NC(=O)N3c1ccc(Oc2ccccc2)cc1C (single isomer, unassigned): 6.73
9. Cc1cc(OCC(C)C)ncc1N1C(=O)Nc2c(C(=O)N[C@@H]3CC[C@H](N)C3)sc3nccc1c23 (single isomer, unassigned): 6.16
10. C=CC(=O)N[C@H]1CCCC[C@H]1NC(=O)c1sc2nccc3c2c1NC(=O)N3c1cnc(OC2CCCC2)cc1C (single isomer, unassigned) [Example 309]: 7.91
11. C=CC(=O)N[C@H]1CCN(C(=O)c2sc3nccc4c3c2NC(=O)N4c2ccc(Oc3ccccc3)cc2C)C1: 7.01
12. C=CC(=O)N[C@H]1CCC[C@H]1NC(=O)c1sc2nccc3c2c1NC(=O)N3c1cnc(Oc2cncnc2)cc1C: 7.39
13. C=CC(=O)N[C@H]1CC[C@@H](NC(=O)c2sc3nccc4c3c2NC(=O)N4c2cnc(OCC(C)C)cc2C)C1 (single isomer, unassigned): 7.93
